tested on: LXRa homodimer (NR concentration 270 nM); experiment: PBM binding z-score (relative to random genomic background probes); higher = stronger binding; sequences stand for … in GC…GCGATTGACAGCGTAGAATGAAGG
Each entry gets 0 (no) if its PBM binding z-score stays under 4, and 1 (yes) if its PBM binding z-score is 4 or above.

Reference set (4 entries):
>>> assigned_label("TAGCCTAGGTCATAGGCCAGTATACCACGCGAAC")
"0 (no)"
>>> assigned_label("CCTTACGGGTAACTCCAGGTTATAGCATCGGAGT")
"0 (no)"
>>> assigned_label("ATATGAAGGTTATCGGGTCATTCAGTTTGCGCAT")
"0 (no)"
>>> assigned_label("CGTTCAAGGTCATAGGAGGTCAGTGAAGACAGAT")
"1 (yes)"

Prompt line: Check the entry "CTCGAAAGGGCGTGCTCAGGTGAGTATACCAAAC" : does PBM binding z-score equal or exceed 4?
Response line: 0 (no)

The reported measurements were obtained from the supplement of paper PMC6555819.
